Species: Homo sapiens
assay-name: To identify inhibition of the IFN signalling (Jak-Stat) pathway via expression of an eGFP reporter gene under the control of an IFN-stimulated response element (ISRE) containing MxA promoter.
Format: functional
Set-up: scale not given: direction of the effect not stated beside the values
protocol-conditions: 30 µM
Lab note: compare Percent Effect with 10%, writing 1 if less and 0 if equal or more.

Would you please look over these solved cases?
compound="Cc1cc(CN(C)C(=O)C2CCCN(C(=O)c3cccs3)C2)no1 (stereo not drawn)" discrete_label=1
compound=Cc1ccc(-c2nc(CN3CCc4nn(C)c(=O)cc4C3)co2)cc1 discrete_label=0
compound=NS(=O)(=O)CCNC(=O)C1(c2ccc(Br)cc2)CC1 discrete_label=1
compound=O=C(NCCNc1ncccn1)C1CCN(C(=O)C2CC2)CC1 discrete_label=0
compound=CCS(=O)(=O)N1CCC[C@]2(C(=O)N(C)C)CN(c3ncccn3)C[C@@H]2C1 discrete_label=1
compound="CSCC(=O)N1CCCC(n2ccnc2C(C)C)C1 (stereo not drawn)" discrete_label=1
compound="Cc1cc(C2CCCN(C(=O)c3ccc(C)[nH]c3=O)C2)n[nH]1 (stereo not drawn)" discrete_label=1
compound=CCNC(=O)c1ncn2c1CN(C)S(=O)(=O)c1ccccc1-2 discrete_label=0

Consider Cc1ccc2c(c1)OCCCC2NCc1nnc2n1CCCCC2 (stereo not drawn) . Does its Percent Effect lie strictly below 10%?
1

I wonder whether CC(Nc1cccc(CN2CCOC2=O)c1)C(=O)NC(N)=O (stereo not drawn) has Percent Effect below 10%. Can you tell?
0

Does `CN(C)[C@@H]1CCN(C(=O)NC2CCCC2)[C@H]1Cc1cnn(C)c1` have Percent Effect strictly under 10%?
1

Is Percent Effect of CC(CN1CCOCC1)NCC1CCN(c2cnn(C)c(=O)c2)CC1 (stereo not drawn) strictly below 10%?
1

Determine whether this compound shows Percent Effect lower than 10% (ties excluded): CN(C)C(CNC(=O)c1cccc(-n2cnnn2)c1)c1ccccc1Cl (stereo not drawn)
0

Dear reviewer, please state whether `Cc1ccccc1CNC(=O)CN1CCN(Cc2nccn2C)CC1` has Percent Effect strictly beneath 10%.
1

Is the reported Percent Effect for Cc1nc(C2CCCN(C(=O)CCCn3ccnc3C)C2)no1 (stereo not drawn) strictly below 10%?
0

is_below(Percent Effect, 10%) for `CN(C)c1ncc(-c2cc(C(=O)O)n(CC3CC3)c2)cn1` ?
1

Say whether its Percent Effect is strictly beneath 10%. Entry: CCn1cnnc1C1CCN(C(=O)C(OC)c2ccccc2)CC1 (stereo not drawn)
1

Below 10% on Percent Effect? Entry `O=C(O)[C@@H]1CN(C(=O)c2cc(C3CC3)n[nH]2)C[C@H]1c1cccc(F)c1`
1

Hello, is Percent Effect of the following compound strictly smaller than 10%? Cc1cc(C)n(CC2CN(CC(=O)Nc3nncs3)CCO2)n1 (stereo not drawn)
0

* * *

target-or-test-system: Ubiquitin-activating enzyme e1, putative (Leishmania donovani (strain BPK282A1))
Sequence (whole entry): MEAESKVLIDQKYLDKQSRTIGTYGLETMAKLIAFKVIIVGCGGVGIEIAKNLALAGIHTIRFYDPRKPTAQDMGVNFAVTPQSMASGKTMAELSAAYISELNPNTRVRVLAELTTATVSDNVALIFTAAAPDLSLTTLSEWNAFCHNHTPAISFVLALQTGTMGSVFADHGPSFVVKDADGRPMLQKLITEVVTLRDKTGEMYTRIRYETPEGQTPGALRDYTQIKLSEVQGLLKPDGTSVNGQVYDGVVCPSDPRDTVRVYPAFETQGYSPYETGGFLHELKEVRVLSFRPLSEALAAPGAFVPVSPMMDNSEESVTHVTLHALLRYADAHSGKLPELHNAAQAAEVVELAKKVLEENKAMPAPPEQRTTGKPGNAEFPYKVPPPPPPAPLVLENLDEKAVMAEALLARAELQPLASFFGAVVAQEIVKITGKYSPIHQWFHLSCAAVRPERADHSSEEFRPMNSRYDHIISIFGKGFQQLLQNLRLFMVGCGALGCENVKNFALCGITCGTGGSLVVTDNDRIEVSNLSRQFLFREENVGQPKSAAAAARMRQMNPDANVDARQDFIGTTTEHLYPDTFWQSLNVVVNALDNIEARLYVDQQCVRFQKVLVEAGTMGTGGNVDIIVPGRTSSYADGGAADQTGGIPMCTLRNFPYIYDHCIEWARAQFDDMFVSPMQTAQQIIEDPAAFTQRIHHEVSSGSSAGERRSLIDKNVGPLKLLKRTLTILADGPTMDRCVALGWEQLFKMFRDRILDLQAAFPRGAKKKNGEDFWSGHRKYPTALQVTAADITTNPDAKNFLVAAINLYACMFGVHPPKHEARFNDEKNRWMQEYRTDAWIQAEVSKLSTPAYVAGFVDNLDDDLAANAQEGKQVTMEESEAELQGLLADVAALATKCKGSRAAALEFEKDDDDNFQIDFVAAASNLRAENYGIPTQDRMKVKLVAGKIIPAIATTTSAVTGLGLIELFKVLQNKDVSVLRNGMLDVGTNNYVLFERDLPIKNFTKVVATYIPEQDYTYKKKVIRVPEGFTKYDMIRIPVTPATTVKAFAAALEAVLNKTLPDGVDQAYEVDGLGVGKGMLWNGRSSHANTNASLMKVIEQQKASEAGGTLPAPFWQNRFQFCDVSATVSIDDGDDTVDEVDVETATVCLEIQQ
assay-name: Leishmania donovani Ubiquitin Activating Enzyme (LdE1)
Type: functional
Design: scale not given: direction of the effect not stated beside the values
protocol-conditions: 30 µM
Results with a measured potency or affinity are listed apart.
experimental-endpoint: Percent Effect
In your response, put the unit directly after the numeric value.

molecule=Cc1ccc(-c2nc(CN3CCn4c(nnc4C4CC4)C3)cs2)o1 target_or_test_system="Ubiquitin-activating enzyme e1, putative (Leishmania donovani (strain BPK282A1))" val=0%
molecule="Cn1cc(CN2CCOCC3(C2)CN(c2ccccc2)C(=O)CO3)cn1 (stereo unspecified)" target_or_test_system="Ubiquitin-activating enzyme e1, putative (Leishmania donovani (strain BPK282A1))" val=9.09%
molecule=CC(=O)N1CCN(C(=O)CN2CCc3c(ncn3C3CC3)C2)CC1 target_or_test_system="Ubiquitin-activating enzyme e1, putative (Leishmania donovani (strain BPK282A1))" val=19%
molecule=Cc1cc2nc(SCC(=O)N3CCCC3)n(C(C)C)c(=O)c2[nH]1 target_or_test_system="Ubiquitin-activating enzyme e1, putative (Leishmania donovani (strain BPK282A1))" val=21.1%
molecule=O=C1CC[C@@H]2[C@@H](CCN2C(=O)c2ccsc2)N1CC1CC1 target_or_test_system="Ubiquitin-activating enzyme e1, putative (Leishmania donovani (strain BPK282A1))" val=-2.7%
molecule=CCOC(=O)[C@]12CCCN(Cc3nccs3)C[C@H]1CN(CCN(C)C)C2 target_or_test_system="Ubiquitin-activating enzyme e1, putative (Leishmania donovani (strain BPK282A1))" val=13%

Hi, could you look up Percent Effect for each item in my list?
1. CN(C)c1ccc(C(=O)NCC2(c3ccccc3)CCOCC2)cc1
2. COc1ccc(CN2CCC3(CC2)NC(=O)CC3c2ccncc2)cc1 (stereo unspecified)
3. CN1CCN(c2ncnc3c2c(C(=O)NC2CC2)c2ccccn23)CC1
4. O=C(NCCN1CCc2ccccc2C1)c1scnc1Cl
5. CC(C)COCC(NC(=O)c1ccccn1)c1ccco1 (stereo unspecified)

1: 22.7%; 2: -6.49%; 3: -6.49%; 4: 13.2%; 5: 13.5%
